test: AUC (0 to infinity) in Wistar rat at 30 mg/kg, po; format: ADME, organism-based; design: time infinity, dose 30 mg/kg, route oral; conditions: plasma

SMILES_NOTATION | UNIT_STRING | AUC(0-inf)
COc1ccc(/C(C)=N/OCCOc2ccc(C[C@H]3CO[C@@](C)(C(=O)O)OC3)cc2)cc1 | ng·h/mL | 1420

====

Molecular target: Peroxisome proliferator-activated receptor alpha (Homo sapiens) (UniProt Q07869)
Sequence (whole entry): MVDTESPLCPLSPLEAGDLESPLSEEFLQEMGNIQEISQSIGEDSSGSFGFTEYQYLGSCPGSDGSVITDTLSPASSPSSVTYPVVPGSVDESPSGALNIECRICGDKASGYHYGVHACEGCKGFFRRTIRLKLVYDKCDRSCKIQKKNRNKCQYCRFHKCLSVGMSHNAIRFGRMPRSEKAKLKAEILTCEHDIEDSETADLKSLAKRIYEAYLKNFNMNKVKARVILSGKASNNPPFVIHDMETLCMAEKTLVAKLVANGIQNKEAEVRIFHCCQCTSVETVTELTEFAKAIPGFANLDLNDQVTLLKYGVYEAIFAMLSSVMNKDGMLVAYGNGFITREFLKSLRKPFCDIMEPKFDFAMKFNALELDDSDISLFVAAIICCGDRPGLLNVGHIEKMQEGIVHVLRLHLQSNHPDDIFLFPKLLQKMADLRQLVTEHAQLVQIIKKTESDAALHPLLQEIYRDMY
Assay: Agonist activity at human PPARalpha in human HepG2 cells co-transfected with PPRE3-TK-luc assessed as induction of transactivation activity at 10 uM by luciferase reporter gene assay relative to control
Format: functional, cell-based
Recorded fold change (FC) values for a group of molecules are listed next.
MEASUREMENT_LABEL: fold change (FC)

SMILES_NOTATION | MEASUREMENT_LABEL | REPORTED
C/C(=N\OCCOc1ccc(C[C@H]2CO[C@@](C)(C(=O)O)OC2)cc1)c1cccnc1 | fold change (FC) | 2.36
COc1ccc(/C(C)=N/OCCOc2ccc(C[C@H]3CO[C@@](C)(C(=O)O)OC3)cc2)cc1OC | fold change (FC) | 3.61
C/C(=N\OCCOc1ccc(C[C@H]2CO[C@@](C)(C(=O)O)OC2)cc1)c1ccc2c(c1)CCCC2 | fold change (FC) | 1.63
C/C(=N\OCCOc1ccc(C[C@H]2CO[C@@](C)(C(=O)O)OC2)cc1)c1ccc(OC(F)(F)F)cc1 | fold change (FC) | 3.48
Cc1ccc(-c2nc(COc3ccc(C[C@H]4CO[C@@](C)(C(=O)O)OC4)cc3)c(C)o2)cc1 | fold change (FC) | 14.7
C/C(=N\OCCOc1ccc(C[C@H]2CO[C@@](C)(C(=O)O)OC2)cc1)c1ccccc1 | fold change (FC) | 10.8
Cc1ccc(-c2nc(CCCC[C@H]3CO[C@@](C)(C(=O)O)OC3)c(C)o2)cc1 | fold change (FC) | 12.7
C/C(=N\OCCOc1ccc(C[C@H]2CO[C@@](C)(C(=O)O)OC2)cc1)c1ccc(F)cc1 | fold change (FC) | 10.5
C/C(=N\OCCOc1ccc(C[C@H]2CO[C@@](C)(C(=O)O)OC2)cc1)c1ccc(C)cc1 | fold change (FC) | 10.8
COc1ccc(/C(C)=N/OCCOc2ccc(C[C@H]3CO[C@@](C)(C(=O)O)OC3)cc2)cc1 | fold change (FC) | 15
C/C(=N\OCCOc1ccc(C[C@H]2CO[C@@](C)(C(=O)O)OC2)cc1)c1ccc(C(F)(F)F)cc1 | fold change (FC) | 5.79
C/C(=N\OCCOc1ccc(C[C@H]2CO[C@@](C)(C(=O)O)OC2)cc1)c1ccc(S(C)(=O)=O)cc1 | fold change (FC) | 1.37
C/C(=N\OCCOc1ccc(C[C@H]2CO[C@@](C)(C(=O)O)OC2)cc1)c1ccc2ccccc2c1 | fold change (FC) | 1.76
